- Test system: giant foxtail (Setaria faberii)
- ASSAY_PROTOCOL: Test D pre-/postemergence plant response
- Assay type: in vivo
- SETUP_CONDITIONS: Postemergence, 16 g ai/ha
The following molecules are shown together with reported Plant response rating (scale 0 to 100), Foxtail, Giant values.

Cc1cc(-c2c(F)cccc2Oc2ncc(Cl)cn2)on1: 0
Clc1cnc(Oc2ccccc2-c2ccon2)nc1: 35
Fc1ccc(Oc2ncc(Cl)cn2)c(-c2cc(C(F)(Cl)Cl)on2)c1: 35

Turning now to a further record.
Reported giant foxtail (Setaria faberii) Plant response rating (scale 0 to 100), Foxtail, Giant for item "Cc1cc(-c2c(F)cccc2Oc2ncc(Br)cn2)on1" was 5
